# System: LXRb homodimer (NR concentration 270 nM)
# Method Description: PBM binding z-score (relative to random genomic background probes); higher = stronger binding; sequences stand for … in GC…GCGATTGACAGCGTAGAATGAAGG
Definition: the class of an entry is the range in Low: < -0.3; Mid: ≥ -0.3 and < 0.1; High: ≥ 0.1 that contains its PBM binding z-score.

>  <Seq String>
TGAATGAGGTTATACGATCAGGGAACGTTGCAAA

>  <Label Class>
Mid

$$$$
>  <Seq String>
GCTTGTGGATCAAGGTTAAGAAAGACTAAGCTAA

>  <Label Class>
Mid

$$$$
>  <Seq String>
CCTTCTGGGCCATCAGGTCATTGATATCAACGTT

>  <Label Class>
Mid

$$$$
>  <Seq String>
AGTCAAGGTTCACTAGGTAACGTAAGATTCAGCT

>  <Label Class>
High

$$$$
>  <Seq String>
AAAGACAGGTGATGAAGGTAACTCAGGCTATCAT

>  <Label Class>
Mid

$$$$

Given "TCTAGCAGGCCTGAGGGTCACTCAAGAGGTACGG" , name the class its PBM binding z-score places it in. Low

---

# System: PPARg:RXRa DBDmut IVT, anti-RXR (DBD mutation: RXRa K156A/R161A, NR concentration 270 nM, RXRa partner concentration 90 nM)
# Method Description: PBM binding z-score (relative to random genomic background probes); higher = stronger binding; sequences stand for … in GC…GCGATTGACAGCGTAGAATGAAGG
Each record gets a class by PBM binding z-score: I (below 2), II (2 to below 4), III (4 or more)

Recorded results for 9 sequences are shown here.
>  <Seq String>
GCGACTGGGGCATCAGCAGGTGACCATAACTTAA

>  <Label Class>
III

$$$$
>  <Seq String>
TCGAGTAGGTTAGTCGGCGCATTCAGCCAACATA

>  <Label Class>
I

$$$$
>  <Seq String>
AGTCAACGTTCACTAGGTAACGTAAGATTCAGCT

>  <Label Class>
II

$$$$
>  <Seq String>
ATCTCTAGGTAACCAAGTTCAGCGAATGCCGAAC

>  <Label Class>
II

$$$$
>  <Seq String>
GCGACTGGGGCATCAGCCGGTTACCATAACTTAA

>  <Label Class>
II

$$$$
>  <Seq String>
ATATGTAGGTTAGGTGGGGTCATTCAGACTAGGC

>  <Label Class>
III

$$$$
>  <Seq String>
CAGCCGAGGTCAGGGCCAGTATAGGAGGAACGTT

>  <Label Class>
I

$$$$
>  <Seq String>
CCGACTGGGGCAAGGTTATCATAACGCACAGCCA

>  <Label Class>
II

$$$$
>  <Seq String>
TCATATAGTTAAAGGTGAAAGTCGAACGATATGA

>  <Label Class>
I

$$$$

Category of "ATATGTAGGTTTAGGGTCATTCAGGTTGGTTCGC" , please. II

---

# Tested on: PXR homodimer (NR concentration 270 nM)
# Method Description: PBM binding z-score (relative to random genomic background probes); higher = stronger binding; sequences stand for … in GC…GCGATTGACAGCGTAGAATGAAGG
Binary call on PBM binding z-score: criterion met from 2 upward, criterion not met beneath that.

>  <Seq String>
CCGACTGGGGCAAGTTTACCATAACGCACAGCCA

>  <Label Class>
criterion not met

$$$$

Confirm if PBM binding z-score reported for the sequence "CAAACTAGGTCGCAGAGGTCAAAGTCCGTGCGTA" is 2 or above. criterion met

Is the recorded value of PBM binding z-score equal to or greater than 2 for this sequence? "CAGACTAGGTCAAGGTCAAAGTCGGTTTGTGCCA" criterion not met

Please tell me: is the sequence "TAGCCTAGGTCGTTGGGCCAGTATAGTACGCATC" at or over 2 in terms of PBM binding z-score? criterion not met

Form field: PBM binding z-score at least 2? Entry: "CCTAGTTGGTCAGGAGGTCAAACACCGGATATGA" criterion met

Textbook exercise: given the entry "GCTTGTTGATCAAGGTTAAGAAAGACTAAGCTAA" , state whether its PBM binding z-score is greater than or equal to 2. criterion not met

hey, is PBM binding z-score for this one >= 2? "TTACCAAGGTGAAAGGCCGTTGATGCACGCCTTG" criterion not met

Is the recorded value of PBM binding z-score equal to or greater than 2 for this sequence? "GCGACTGGGCCAAAGCAGGTTACCATAAGGTTGG" criterion not met

In plain terms: is recorded PBM binding z-score at least 2 for "CCTACTGGGCCAAAAAGGTCTTTGATGCCGATAA" ? criterion not met

Answer whether PBM binding z-score of "CGAACTAGGTCAGAACCGGACAGTGAAGGATGAT" is greater than or equal to 2. criterion not met

Please check the record "CAAACTAGGTCACCGGAAGGTCAAAATCCGCATG" and state if its PBM binding z-score is at or above 2. criterion not met

---

# Test system: VDR homodimer (NR concentration 270 nM)
# Method Description: PBM binding z-score (relative to random genomic background probes); higher = stronger binding; sequences stand for … in GC…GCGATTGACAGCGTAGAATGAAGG
Consider the following sequences; for each one, report its PBM binding z-score.
Numbers only.

Consider the worked cases shown below.
>  <Seq String>
ACTAGTAGGCCAAGTTTGGGTCACTCAAACAAAG

>  <Target System>
VDR homodimer (NR concentration 270 nM)

>  <Outcome Measure>
PBM binding z-score

>  <Measured Number>
0.613

$$$$
>  <Seq String>
TCATATAGGTAAATGCTAGGTGAGAGTCCGATCT

>  <Target System>
VDR homodimer (NR concentration 270 nM)

>  <Outcome Measure>
PBM binding z-score

>  <Measured Number>
0.216

$$$$
>  <Seq String>
TCTTATAGATCAGCAGGTTAAGAAAGCTGGCCAA

>  <Target System>
VDR homodimer (NR concentration 270 nM)

>  <Outcome Measure>
PBM binding z-score

>  <Measured Number>
-0.144

$$$$
>  <Seq String>
TCTTGTAGATCAATAGAGTTTAAGAAAGTGCGCT

>  <Target System>
VDR homodimer (NR concentration 270 nM)

>  <Outcome Measure>
PBM binding z-score

>  <Measured Number>
0.914

$$$$
>  <Seq String>
CAGCCTGGGTCAGGGCCAGTATAGGAGGAACGTT

>  <Target System>
VDR homodimer (NR concentration 270 nM)

>  <Outcome Measure>
PBM binding z-score

>  <Measured Number>
-0.545

$$$$

Alright, here's another sequence for you.
Quick one: PBM binding z-score of "ATACCTAGGTGATCGTGAGGTCGTTGATACTAAC" ? 3.13

---

# System: PPARg:RXRa 90nM:30nM, anti-RXR (NR concentration 90 nM, RXRa partner concentration 30 nM)
# Method Description: PBM binding z-score (relative to random genomic background probes); higher = stronger binding; sequences stand for … in GC…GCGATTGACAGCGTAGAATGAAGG
Outcome Measure: PBM binding z-score
Numbers only.

Check out these entries, answers already filled in.
>  <Seq String>
GGACCAAGGTGAATAGGTCGTTGATGAGTAGGCG

>  <Target System>
PPARg:RXRa 90nM:30nM, anti-RXR (NR concentration 90 nM, RXRa partner concentration 30 nM)

>  <PBM binding z-score>
0.903

$$$$
>  <Seq String>
CCAGACAGGAGAAAGGTAACTCAGTCTGGTACGC

>  <Target System>
PPARg:RXRa 90nM:30nM, anti-RXR (NR concentration 90 nM, RXRa partner concentration 30 nM)

>  <PBM binding z-score>
0.958

$$$$
>  <Seq String>
ATCGAAAGGTCGTGTGGTGAGTATACAGAAAGGC

>  <Target System>
PPARg:RXRa 90nM:30nM, anti-RXR (NR concentration 90 nM, RXRa partner concentration 30 nM)

>  <PBM binding z-score>
2.57

$$$$

# batch size: 6; output PBM binding z-score per entry
1. TGTATTAGTTGATTAGGGCAACCGAAACAGCGGA
2. TCGAGTAGGTTAGTCGGGGCATTCATCCAACATA
3. TAGCCTAGGTGATGGGCCAGTATACCACGCGAAC
4. AGAATGAGGTTATACGTGGATCAGGGAAGAAAGT
5. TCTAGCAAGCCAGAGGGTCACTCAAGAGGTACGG
6. ATCGAAAGGTCGTGAGGTGAGCATACAGAAAGGC

1: 0.794; 2: 0.83; 3: -0.0568; 4: 1.49; 5: 1.28; 6: 2.96

Provenance of the data: the supplement of paper PMC6555819
